STUDY SYSTEM: Human recombinant DHX9 protein (Homo sapiens (Human))
TEST SUMMARY: DHX9 ATPase assay (ADP-Glo)
Assay type: biochemical
ATTRIBUTE MEASURED: DHX9 Biochemical Max Inhibition

| SMILES ENTRY | RESULT VALUE |
| --- | --- |
| Cc1sc(C(=O)Nc2cc(Cl)cc(NS(C)(=O)=O)c2)cc1-c1ncc(O)cn1 | 72.5 |
| COc1cnc(-c2cc(C(=O)Nc3cc(Cl)cc(NS(C)(=O)=O)c3)cn2CC(F)(F)F)nc1 | 66.9 |

Now, please, on to the next molecule.
What value of measured DHX9 Biochemical Max Inhibition is listed for CCOc1cnc(-c2cc(C(=O)Nc3cc(Cl)cc(NS(C)(=O)=O)c3)cn2C)nc1 ? 72.4%

----------
STUDY SYSTEM: Human recombinant DHX9 protein (Homo sapiens (Human), UniProt Q08211)
Sequence (Q08211 whole entry): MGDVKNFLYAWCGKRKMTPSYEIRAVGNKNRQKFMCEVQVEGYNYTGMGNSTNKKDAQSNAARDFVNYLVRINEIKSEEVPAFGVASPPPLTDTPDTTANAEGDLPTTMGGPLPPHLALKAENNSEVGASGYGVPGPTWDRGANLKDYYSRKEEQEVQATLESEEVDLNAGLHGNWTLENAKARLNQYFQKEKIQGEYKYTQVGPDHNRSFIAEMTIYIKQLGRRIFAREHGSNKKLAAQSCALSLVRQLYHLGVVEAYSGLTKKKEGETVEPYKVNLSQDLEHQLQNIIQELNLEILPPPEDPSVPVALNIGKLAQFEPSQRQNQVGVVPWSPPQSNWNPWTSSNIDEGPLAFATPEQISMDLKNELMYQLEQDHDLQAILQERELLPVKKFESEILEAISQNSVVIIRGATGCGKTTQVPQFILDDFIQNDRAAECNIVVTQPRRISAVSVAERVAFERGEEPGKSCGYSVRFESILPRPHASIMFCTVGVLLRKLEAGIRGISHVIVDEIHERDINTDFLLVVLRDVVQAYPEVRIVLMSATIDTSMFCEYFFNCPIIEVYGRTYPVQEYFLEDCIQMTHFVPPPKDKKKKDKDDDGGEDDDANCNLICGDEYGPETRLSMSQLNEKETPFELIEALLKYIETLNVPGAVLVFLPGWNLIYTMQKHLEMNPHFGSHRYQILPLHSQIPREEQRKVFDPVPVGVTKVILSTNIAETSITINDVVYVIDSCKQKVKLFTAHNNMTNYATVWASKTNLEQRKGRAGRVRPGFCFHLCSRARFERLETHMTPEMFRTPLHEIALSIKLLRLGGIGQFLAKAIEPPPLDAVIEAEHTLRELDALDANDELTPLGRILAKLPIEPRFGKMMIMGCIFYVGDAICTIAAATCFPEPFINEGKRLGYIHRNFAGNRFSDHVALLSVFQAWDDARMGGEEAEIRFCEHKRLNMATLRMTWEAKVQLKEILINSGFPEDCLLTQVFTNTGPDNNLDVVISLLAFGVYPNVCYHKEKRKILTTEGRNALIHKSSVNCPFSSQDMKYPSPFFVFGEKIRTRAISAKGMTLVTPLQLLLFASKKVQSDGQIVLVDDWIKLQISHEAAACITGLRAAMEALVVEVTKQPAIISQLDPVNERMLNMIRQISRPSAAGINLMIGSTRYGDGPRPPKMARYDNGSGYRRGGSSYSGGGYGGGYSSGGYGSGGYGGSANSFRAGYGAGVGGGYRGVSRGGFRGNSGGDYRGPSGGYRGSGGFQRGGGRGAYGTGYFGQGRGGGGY
TEST SUMMARY: DHX9 ATPase assay (ADP-Glo)
Assay type: biochemical
DETAILS: read-out: DHX9 Biochemical Inflection Point
ATTRIBUTE MEASURED: IC50 (nM)
Provide only the numeric value, understood in nM.

Sample records with IC50:
| COMPOUND | STUDY SYSTEM | IC50 / nM |
| --- | --- | --- |
| Cc1noc(C)c1COc1cc(F)cnc1-c1cc(C(=O)Nc2cc(Cl)cc(NS(C)(=O)=O)c2)cn1C | Human recombinant DHX9 protein (Homo sapiens (Human), UniProt Q08211) | 36.5 |
| Cc1sc(C(=O)Nc2cc(Cl)cc(NS(C)(=O)=O)c2)cc1-c1ncc(C(F)(F)F)cc1C#N | Human recombinant DHX9 protein (Homo sapiens (Human), UniProt Q08211) | 55.9 |
| CS(=O)(=O)Nc1cc(Br)cc(NC(=O)c2cnn(-c3ccccc3C(O)C(F)(F)F)c2)c1 (centres unmarked) | Human recombinant DHX9 protein (Homo sapiens (Human), UniProt Q08211) | 452 |
| Cc1cc(C(=O)Nc2cc(Cl)cc(NS(C)(=O)=O)c2)cn1C1CCCC1 | Human recombinant DHX9 protein (Homo sapiens (Human), UniProt Q08211) | 96.4 |
| CS(=O)(=O)Nc1cc(Cl)cc(NC(=O)c2cc(-c3cccc(F)c3)cs2)c1 | Human recombinant DHX9 protein (Homo sapiens (Human), UniProt Q08211) | 210 |

What value of measured IC50 is listed for Cc1cc(C(=O)Nc2cc(Cl)cc(NS(C)(=O)=O)c2)cn1-c1ncc(N2CCC(F)(F)C2)cc1F ? 41.6

Another compound: COCc1sc(C(=O)Nc2cc(Cl)cc(NS(C)(=O)=O)c2)cc1-c1ccccn1 9.5

Another compound: Cc1sc(C(=O)Nc2cc(Cl)cc(NS(C)(=O)=O)c2)cc1-c1nccn1CCc1ccccc1 1050

----------
STUDY SYSTEM: Human recombinant DHX9 protein (Homo sapiens (Human), UniProt Q08211)
TEST SUMMARY: DHX9 ATPase assay (ADP-Glo)
DETAILS: read-out: DHX9 Biochemical Inflection Point
IC50 listing for selected compounds.
Provide only the numeric value, understood in nM.

Sample records with IC50:
| COMPOUND | STUDY SYSTEM | ATTRIBUTE MEASURED | UOM | RESULT VALUE |
| --- | --- | --- | --- | --- |
| Cc1sc(C(=O)Nc2cc(Cl)cc(NS(C)(=O)=O)c2)cc1-c1ncc(F)cc1OCc1cnco1 | Human recombinant DHX9 protein (Homo sapiens (Human), UniProt Q08211) | IC50 | nM | 10.5 |
| Cc1cc(C(=O)Nc2cc(Cl)cc(NS(C)(=O)=O)c2)cn1-c1ncc(OC(C)(C)C)cc1F | Human recombinant DHX9 protein (Homo sapiens (Human), UniProt Q08211) | IC50 | nM | 68 |
| Cc1cc(C(=O)Nc2cc(Cl)cc(NS(C)(=O)=O)c2)cn1-c1ncc(C(F)(F)F)cn1 | Human recombinant DHX9 protein (Homo sapiens (Human), UniProt Q08211) | IC50 | nM | 58.5 |

What value of measured IC50 is listed for Cc1cc(C(=O)Nc2cc(Cl)cc(NS(C)(=O)=O)c2)cn1-c1ncc(N2CC(F)(F)C2)cc1Cl ? 55.1

Another compound: COc1cnc(-c2cc(C(=O)Nc3cc(Cl)cc(NS(C)(=O)=O)c3)sc2C)c(F)c1 38.4

Another compound: COC1CCN(c2cc(F)cnc2-c2cc(C(=O)Nc3cc(Cl)cc(NS(C)(=O)=O)c3)sc2C)C1 (stereo not shown) 46.4

Another compound: CS(=O)(=O)Nc1cc(Cl)cc(NC(=O)c2cnn(-c3ncccc3OCc3cccc(F)c3)c2)c1 5.5

----------
STUDY SYSTEM: Human recombinant DHX9 protein (Homo sapiens (Human), UniProt Q08211)
TEST SUMMARY: DHX9 ATPase assay (ADP-Glo)
Assay type: biochemical
DHX9 Biochemical Max Inhibition listing for selected compounds.

Sample records with DHX9 Biochemical Max Inhibition:
| SMILES ENTRY | STUDY SYSTEM | DHX9 Biochemical Max Inhibition |
| --- | --- | --- |
| CS(=O)(=O)Nc1cc(Cl)cc(NC(=O)c2cnn(-c3ccc(N4CCn5ccnc5C4)cn3)c2)c1 | Human recombinant DHX9 protein (Homo sapiens (Human), UniProt Q08211) | 72.6% |
| Cn1cc(C(=O)Nc2cc(Cl)cc(NS(C)(=O)=O)c2)cc1-c1ncc(N2CC(C(F)(F)F)C2)cc1F | Human recombinant DHX9 protein (Homo sapiens (Human), UniProt Q08211) | 62.65 |

Notebook: pull reported DHX9 Biochemical Max Inhibition for Human recombinant DHX9 protein (Homo sapiens (Human), UniProt Q08211), entry Cn1cc(C(=O)Nc2cc(Cl)cc(NS(C)(=O)=O)c2)cc1-c1ncc(Cl)cn1 91.5

Another compound: CS(=O)(=O)Nc1cc(Cl)cc(NC(=O)c2cc3c(C(F)(F)F)cccn3c2)c1 54.6%

----------
STUDY SYSTEM: Human recombinant DHX9 protein (Homo sapiens (Human))
TEST SUMMARY: DHX9 ATPase assay (ADP-Glo)
Assay type: biochemical
ATTRIBUTE MEASURED: DHX9 Biochemical Max Inhibition

Sample records with DHX9 Biochemical Max Inhibition:
| COMPOUND | DHX9 Biochemical Max Inhibition |
| --- | --- |
| Cc1cc(C(=O)Nc2cc(Cl)cc(NS(C)(=O)=O)c2)cn1-c1ncc(OC(C)(C)C)cc1F [Example 662] | 66.1 |
| CS(=O)(=O)Nc1cc(F)cc(NC(=O)c2cc(-c3ncccc3OCc3ccccc3)cs2)c1 [Example 214] | 75.9% |
| Cn1cc(C(=O)Nc2cc(Cl)cc(NS(=O)(=O)CCO)c2)cc1-c1ncc(F)cc1F [Example 581] | 50.5 |
| Cc1sc(C(=O)Nc2cc(Cl)cc(NS(=O)(=O)CCO)c2)cc1-c1ncc(N2CC(C(F)(F)F)C2)cc1F [Example 529] | 57.3 |
| CS(=O)(=O)Nc1cc(Cl)cc(NC(=O)c2cc(-c3ccccc3OCc3ccccc3)cs2)c1 [Example 111] | 68.2% |
| Cc1sc(C(=O)Nc2cc(Cl)cc(NS(C)(=O)=O)c2)cc1-c1nccn1CCc1ccccc1 [Example 698] | 75.4 |

Now, please, on to the next compound.
What value of measured DHX9 Biochemical Max Inhibition is listed for CN1CC[C@@H](Oc2cnc(-c3cc(C(=O)Nc4cc(Cl)cc(NS(C)(=O)=O)c4)cn3C)c(F)c2)C1 [Example 640] ? 59

----------
STUDY SYSTEM: Human recombinant DHX9 protein (Homo sapiens (Human), UniProt Q08211)
TEST SUMMARY: DHX9 ATPase assay (ADP-Glo)
DETAILS: read-out: DHX9 Biochemical Inflection Point
ATTRIBUTE MEASURED: pIC50
pIC50 field: float, defined as -log10 of concentration (mol/L).

Sample records with pIC50:
| COMPOUND | pIC50 |
| --- | --- |
| Cn1cc(C(=O)Nc2cc(Cl)cc(NS(C)(=O)=O)c2)cc1-c1ccc(OC(C)(C)C)cn1 | 7.36 |
| Cn1cc(C(=O)Nc2cc(Cl)cc(NS(C)(=O)=O)c2)cc1-c1ncc(N2CCC3(CC2)CC3(F)F)cc1F | 6.82 |
| CS(=O)(=O)Nc1cc(Cl)cc(NC(=O)c2cc3c(C(F)(F)F)cccn3c2)c1 | 6.19 |
| Cc1sc(C(=O)Nc2cc(Cl)cc(NS(C)(=O)=O)c2)cc1-c1ncc(OC(C)C)cc1F | 7.47 |
| CS(=O)(=O)Nc1cc(Cl)cc(NC(=O)c2cc(Br)cs2)c1 | 6.94 |

Notebook: pull reported pIC50 for Human recombinant DHX9 protein (Homo sapiens (Human), UniProt Q08211), entry Cc1sc(C(=O)Nc2cc(Cl)cc(NS(C)(=O)=O)c2)cc1N1C(=O)N(c2ccccn2)C(C)(C)C1=O 6.93

Another compound: Cc1sc(C(=O)Nc2cc(Cl)cc(NS(C)(=O)=O)c2)c(F)c1-c1ncc(OC(C)C)cn1 5.77

Another compound: CS(=O)(=O)Nc1cc(Cl)cc(NC(=O)c2cnn(-c3ncccc3OCc3cc(F)cc(F)c3)c2)c1 [Example 187] 8.49

Another compound: Cn1cc(C(=O)Nc2cc(Cl)cc(NS(C)(=O)=O)c2)cc1-c1ncc(N2CC(C(F)(F)F)C2)cc1F 7.48

Another compound: Cc1cccnc1-n1cc(C(=O)Nc2cc(Cl)cc(NS(C)(=O)=O)c2)cn1 7.18

Another compound: CN(C)C(=O)N1CCN(c2ccc(-n3cc(C(=O)Nc4cc(Cl)cc(NS(C)(=O)=O)c4)cn3)nc2)CC1 7.84

Another compound: CS(=O)(=O)Nc1cc(Br)cc(NC(=O)c2cnn(-c3ncccc3N)c2)c1 7.71

Another compound: CS(=O)(=O)Nc1cc(Cl)cc(NC(=O)c2cc(-c3ncc(OC4CN(S(C)(=O)=O)C4)cn3)n(CC(F)(F)F)c2)c1 7.15

Where do these numbers come from? They come from patent US20240316047A1.
